Collected growth values appear next to each entry.
Tested on: SW-620 colon
Protocol: NCI-60 one-dose screen, 48 h (100 = growth as untreated, 0 = no growth, -100 = all killed)
Details: 10 µM
About 83,000 compounds went through this panel and 20% of them were active in at least one assay; those are over-represented in the sample as a whole.
Test Readout: growth (%)

>>> df
                                    compound   test_target  test_readout  unit_spec  measured_number
 0  N#CC1C=Cc2c(ccc3ccccc23)N1C(=O)c1ccccc1 (stereo unspecified)  SW-620 colon        growth          %             21.8
 1  C[C@@H]1C(=O)N(C[C@H](Cc2ccccc2)NC(=O)OCc2ccccc2)[C@]1(Cc1ccccc1)C(=O)OCc1ccccc1  SW-620 colon        growth          %             52.6
 2  O=C(Nc1cccc(Cl)c1)Nc1cc2ncncc2cc1OCc1cccc(F)c1  SW-620 colon        growth          %             23.9
 3  CCCn1c(=O)c2c(nc(-c3cccc(OCCCCl)c3)n2C)n(CCC)c1=O  SW-620 colon        growth          %             76.6
 4  COc1ccc(/C(=C/c2cc(OC)c(OC)cc2[N+](=O)[O-])C(=O)O)cc1  SW-620 colon        growth          %              105
 5  COc1cc(C(c2c[nH]c3ccccc23)N2CCCC2)ccc1OCc1ccccc1 (stereo unspecified)  SW-620 colon        growth          %             98.9
 6  CCc1c(C(=O)NCc2c(O)ccc3cccc(O)c23)[nH]c(C)c1C(C)=O  SW-620 colon        growth          %             68.7
 7  COc1ccc(/C=C2\CCC3C(CCCC34OCCO4)C2=O)cc1 (stereo unspecified)  SW-620 colon        growth          %             75.6
 8  Cc1cc(C(C)(C)CC(C)(C)C)ccc1OCCOCC[N+](C)(C)Cc1ccccc1  SW-620 colon        growth          %            -80.6
 9  C#CCNCCN1C(=O)c2ccc3c4c(ccc(c24)C1=O)C(=O)N(CCNCC#C)C3=O  SW-620 colon        growth          %             26.9
10  COc1cc(/C=C2\C(=O)Nc3cc(C)c(O)cc32)cc(OC)c1OC  SW-620 colon        growth          %             55.1
11                 CCCCCCCCCCCCCC[n+]1ccccc1  SW-620 colon        growth          %             2.31
12  Cc1cc(C#Cc2ccccc2)ccc1-n1c(/C=C/c2cc(O)ccc2O)nc2ccccc2c1=O  SW-620 colon        growth          %              5.7
13    CCCCCCCCCCCCc1ccc(C(=O)/C=C/C(=O)O)cc1  SW-620 colon        growth          %            -23.1
14  CCc1nn2c(-c3cc(OC)c(OC)c(OC)c3)c(-c3cc(OC)c(OC)c(OC)c3)nc2s1  SW-620 colon        growth          %             86.3
15  NCCNc1ccc2cc(-c3nc4ccccc4[nH]3)c(=O)oc2c1  SW-620 colon        growth          %              103
16  C#CCn1c(-c2cccc(OCCCCl)c2)nc2c1c(=O)n(C)c(=O)n2C  SW-620 colon        growth          %               95
17  CCc1ccc(-c2nnc(COc3ccc(-c4nc5ccc(C)cc5[nH]4)cc3OC)o2)cc1  SW-620 colon        growth          %             86.7
18  O=C(Nc1cccc(Cl)c1)OCC(COC(=O)Nc1cccc(Cl)c1)(COC(=O)Nc1cccc(Cl)c1)[N+](=O)[O-]  SW-620 colon        growth          %             45.6
19  C=CCNCCCN1C(=O)c2ccc3c4c(ccc(c24)C1=O)C(=O)N(CCCNCC=C)C3=O  SW-620 colon        growth          %            -54.1
20                 CCOC(=O)CSC(=S)SCC(=O)OCC  SW-620 colon        growth          %              135

----------
Test system: NCI-H322M lung
Protocol: NCI-60 one-dose screen, 48 h (100 = growth as untreated, 0 = no growth, -100 = all killed)
Details: 10 µM
The panel holds about 83,000 compounds, 20% with a hit somewhere; the sample as a whole holds those more often.
Test Readout: growth (%)

>>> df
                                   compound     test_target  measured_number
0  CC(=O)Oc1ccc(C2=Cc3ccc(OC(C)=O)cc3OC2C)cc1 (stereo not given)  NCI-H322M lung             98.2
1  O=C(COc1ccc(Cl)cc1Cl)Oc1coc(CSc2nc3ccccc3s2)cc1=O  NCI-H322M lung              114
2  Cc1ccc(/C=C2\CN(Cc3cn(CCNc4ccnc5cc(Cl)ccc45)nn3)C/C(=C\c3ccc(C)cc3)C2=O)cc1  NCI-H322M lung              5.6
3  CS(=O)(=O)Nc1ccc(OCc2nnc(-c3ccc(Cl)cc3)o2)c(F)c1  NCI-H322M lung              109
4  CCCCCCCCCCSC(=N)N (tested in a mixture with another compound)  NCI-H322M lung              105
5  CCCCCCCOc1cccc(/C=C2/C(=O)N=C3SCCCN32)c1  NCI-H322M lung             89.1
6  COc1ccc(-c2nc(-c3ccccc3)c(-c3ccccc3)[nH]2)cc1OC1CCCC1  NCI-H322M lung               66
7  CCOC(=O)CNC(=O)Nc1ccc(Oc2ccc(NC(=O)NCC(=O)OCC)cc2)cc1  NCI-H322M lung             96.3
8  CC1(C)Cc2c(cn(Cc3ccccc3)c2-c2ccccc2)-c2oncc21  NCI-H322M lung              126
9  Cc1nnc2c3nnc(-c4ccc(Cl)cc4)n3c3ccccc3n12  NCI-H322M lung             86.4

----------
Collected growth values appear next to each entry.
Tested on: SN12C renal
Protocol: NCI-60 one-dose screen, 48 h (100 = growth as untreated, 0 = no growth, -100 = all killed)
Details: 10 µM
About 83,000 compounds went through this panel and 20% of them were active in at least one assay; those are over-represented in the sample as a whole.
Test Readout: growth (%)

In [3]: df
Out[3]:
                                   compound  test_readout  unit_spec  measured_number
0          O=[N+]([O-])c1cc2ncccc2c2ncccc12        growth          %             87.2
1  N/C(=N\O)c1cn(C2OC(CO)C(O)C2O)c2ncnc(N)c12 (stereo not given)        growth          %             3.58
2  COc1ccc(Nc2ccnc(N3CCN(c4ccnc5cc(Cl)ccc45)CC3)n2)cc1        growth          %             14.1
3  CC(=O)Oc1ccc(C2=Cc3ccc(OC(C)=O)cc3OC2C)cc1 (stereo not given)        growth          %             66.9
4  CCCCC(=O)N(c1ccc(Nc2c3ccccc3nc3cc([N+](=O)[O-])ccc23)cc1)S(C)(=O)=O        growth          %             69.3

----------
System: OVCAR-3 ovarian
Protocol: NCI-60 one-dose screen, 48 h (100 = growth as untreated, 0 = no growth, -100 = all killed)
Details: 10 µM
The panel holds about 83,000 compounds, 20% with a hit somewhere; the sample as a whole holds those more often.
Each record is given Fulfilled if its reported growth is strictly below 50%. Records at or above 50% are given Not fulfilled.

Compound	Cat
COc1ccc2c(c1)/C(=C/c1cc(OC)c(OC)c(OC)c1)C(=O)N2C	Fulfilled
COc1cc(-c2nc3ccc(C)cc3[nH]2)ccc1OCc1nnc(-c2ccc(CC(C)C)cc2)o1	Not fulfilled
COC(=O)[C@]12CC[C@@H](C)[C@H](C)[C@@H]1C1=CC[C@@H]3[C@@]4(C)C[C@@H](O)[C@H](O)[C@@](C)(CO)[C@@H]4[C@H](O)C[C@@]3(C)[C@]1(C)CC2	Fulfilled
COc1ccc(NC(=O)CCn2cnc3c(cc(-c4ccccc4)n3-c3ccccc3)c2=O)cc1	Not fulfilled
O=[N+]([O-])c1cc2ncccc2c2ncccc12	Not fulfilled
Brc1ccc(-c2cn3ccnc3c(-c3ccc(Br)cc3)n2)cc1	Fulfilled
CCCCCC(CCC)COC(=O)c1ccc(OC)cc1 (centres undefined)	Not fulfilled
CCN(CC)c1ccc(/C=C/C2=[N+](C)c3ccccc3C2(C)C)c(C)c1	Fulfilled
CC(C)OP(=O)(O)c1ncc(-c2ccc(C(F)(F)F)cc2)c(NC2CCCCCC2)n1	Fulfilled
O=C1CC[C@@H](C(=O)N[C@H]2CSSC[C@@H](C(=O)NCCc3ccccc3)NC(=O)[C@H](Cc3ccccc3)NC(=O)[C@@H]3CCCN3C(=O)[C@@H]3CCCN3C2=O)N1	Not fulfilled
c1ccc(CC(NCCNC(Cc2ccccc2)c2ccccc2)c2ccccc2)cc1 (centres undefined)	Fulfilled
COc1cc(Cl)cc(-c2nn(-c3cccc(NC(=O)Nc4cccc(C(F)(F)F)c4)c3)cc2-c2ccncc2)c1	Fulfilled
COc1ccc(-c2nsc3c2NC(=O)CC3c2ccc(Cl)cc2)cc1 (centres undefined)	Not fulfilled
O=C(CCCC(=O)N/N=C/c1cc(Cl)ccc1O)N/N=C\c1cc(Cl)ccc1O	Fulfilled
CN1/C(=C\C(I)C(I)C2=[N+](C)c3ccccc3C2(C)C)C(C)(C)c2ccccc21 (centres undefined)	Fulfilled
COc1ccc(-c2nc(-c3nc4ccc(C)cc4[nH]3)c3ccccn23)cc1	Not fulfilled
CCCCCCCCCCCCc1ccc(C(=O)/C=C/C(=O)O)cc1	Fulfilled
Oc1ccc(Cn2cc3c(c2-c2ccccc2)CCc2cnoc2-3)cc1	Not fulfilled
COC(=O)c1cnc2c(c1)Oc1ccc(Cl)cc1-c1cc(C)nn1-2	Fulfilled
Cc1ccc(/C=C2\CN(Cc3cn(CCNc4ccnc5cc(Cl)ccc45)nn3)C/C(=C\c3ccc(C)cc3)C2=O)cc1	Fulfilled
COc1ccc(CCc2nc3cc(-c4c(C)noc4C)ccc3n2CCN2CCOCC2)cc1	Fulfilled
CCCC(C)c1ccc(OCCCCCCN2CCNCC2)cc1 (centres undefined)	Not fulfilled
COc1ccc(/C=C2\CCC3C(CCCC34OCCO4)C2=O)cc1 (centres undefined)	Not fulfilled
COc1ccc(-c2ccc(-c3ccc(C(=N)N)c(F)c3)s2)cc1	Fulfilled
C=CCOc1ccc2c(c1)CC[C@@H]1[C@@H]2CC[C@]2(C)C(=O)/C(=N/O)C[C@@H]12	Not fulfilled
COc1cccc2c1O/C(=C\c1ncc([N+](=O)[O-])n1C)C2=O	Fulfilled
CCOC(=O)Nc1ccc2c(c1)C(=O)N(CC)c1ccccc1O2	Fulfilled
COc1cc(C2C=C(c3ccc(Cl)c(Cl)c3)N=C3SC(C)=CN32)cc(OC)c1OC (centres undefined)	Not fulfilled
Nc1nc2c(ncn2C2OC3COP(=O)(O)OC4C(COP(=O)(O)OC2C3O)OC(n2cnc3c(N)ncnc32)C4O)c(=O)[nH]1 (centres undefined)	Not fulfilled
COc1ccc(/C(CS(=O)(=O)c2ccccc2)=N\O)cc1	Not fulfilled
COc1ccc(Cn2cc3c(c2-c2cc(OC)c(OC)c(OC)c2)CCc2cnoc2-3)cc1N	Fulfilled
COc1ccc(-c2cc(/C=C/C(=O)c3ccc(N)cc3)[nH]n2)cc1OC	Fulfilled
O=C(c1ccccc1)C(Sc1ccccc1)c1ccccc1 (centres undefined)	Not fulfilled
CCCCCN(CCCCC)C(C)C(O)c1ccc2cc(Cl)c3ccccc3c2c1 (centres undefined)	Not fulfilled
NC1CCC(Nc2nc(NCc3ccc(-c4cccs4)nc3)c3ncn(C4CCCC4)c3n2)CC1 (centres undefined)	Fulfilled
COc1cc(/C=C2\C(=O)Nc3cc(C)c(O)cc32)cc(OC)c1OC	Fulfilled
C=CCNCCCN1C(=O)c2ccc3c4c(ccc(c24)C1=O)C(=O)N(CCCNCC=C)C3=O	Fulfilled
COCCOC(=O)NC(=O)Nc1ccc(C(=O)c2ccc(Cl)cc2)cc1	Fulfilled
NC1CCC(Nc2nc(NCc3ccc(-c4ccco4)nc3)c3ncn(C4CCCC4)c3n2)CC1 (centres undefined)	Fulfilled
